Consider the following molecules and their measured melting point readings.

A selection of reference data follows.
Molecule: Oc1ccc(C(=S)c2ccc(-c3ccccc3)cc2)c(O)c1
Result: 114 to 116 °C
//
Molecule: CCOC(=O)/C=C/c1ccc(-c2ccc(O)c(C34CC5CC(CC(C5)C3)C4)c2)c(Cl)c1
Result: 216 to 218 °C
//
Molecule: Cc1cc(Cl)n2nc(S(=O)(=O)Nc3c(Cl)cccc3Cl)nc2n1
Result: 217 to 220 °C

Query block: Give me measured melting point, please, for this molecule: COc1ccc(-c2nsc(SN)n2)cc1
Result block: 136 to 139 °C

Query block: Give me measured melting point, please, for this molecule: CCC(CC)(Cc1ccc(Cl)cc1)C(O)c1cccnc1 (configuration not stated)
Result block: 128 to 129 °C

Query block: Give me measured melting point, please, for this molecule: CCCCn1ccc(-c2ccc(C(=O)N3Cc4cccn4Cc4ccccc43)cc2)n1
Result block: 122 to 123 °C

Query block: Give me measured melting point, please, for this molecule: Cc1ccc(-c2nn3cccnc3c2CC(N)=O)cc1
Result block: 225 to 226 °C

Query block: Give me measured melting point, please, for this molecule: Oc1ccc(Nc2ncc3ncc(-c4cccc(O)c4)cc3n2)cc1
Result block: > 268 °C

====

Reported Endpoint: melting point

A selection of reference data follows.
Chemical String: CC[C@@H](C(N)=O)n1nnc2cc(Br)ccc21
melting point: 205 to 207 °C

Chemical String: CC(=O)Nc1ccc(C=C(C(=O)C2CC2)C(=O)C2CC2)cc1
melting point: 166 to 167 °C

Chemical String: O=C(CCN1CCN(Cc2ccccc2)CC1)c1ccc2oc3ccccc3c2c1
melting point: 135 to 136 °C

Query block: Give me measured melting point, please, for this compound: CS(=O)(=O)c1ccc(Oc2ccc(C#N)cc2)nc1
Result block: 195 to 196 °C

====

Consider the following compounds and their measured melting point readings.

A selection of reference data follows.
Compound: CC(C)(C)OC(=O)NC(C)(C)c1ccc(-c2nc(Nc3ccc(CCn4ccnc4)cc3)ncc2C#N)cc1
Reported Endpoint: melting point
Result: 124 °C
//
Compound: Cn1nc2c(cc1=O)CCc1cc(O)ccc1-2
Reported Endpoint: melting point
Result: > 300 °C

Okay, next one:
Query block: Give me measured melting point, please, for this compound: CC1=CC(O)C(OC(=O)c2ccc(Cl)cc2)C(C)(C)CC1=O (stereo not drawn)
Result block: 114 to 116 °C

====

Reported Endpoint: melting point

A selection of reference data follows.
Compound: N#CNC1NN=C(c2ccc3ccccc3c2)O1 (stereo not drawn)
melting point: > 250 °C
//
Compound: CN(Cc1ccccc1)Cc1c(-c2ccc(NC(=O)NCCO)cc2)sc2c1c(=O)n(-c1ccccc1)c(=O)n2Cc1c(F)cccc1F
melting point: 220 to 222 °C

Query block: Give me measured melting point, please, for this compound: CCOP(=O)(/C=C/c1cn(-c2ccccc2)nc1OCc1ccc(OCc2nc(-c3cccc(C(=O)O)c3)oc2C)c(OC)c1)OCC
Result block: 148 to 149 °C

====

Reported Endpoint: melting point

A selection of reference data follows.
Chemical String: CCOC(=O)c1ccc2cc(Oc3cccc([N+](=O)[O-])c3)ccn2c1=O
melting point: 161 to 163 °C
--
Chemical String: COC(=O)CCc1ccc(OCc2nc(-c3ccccc3)c(-c3ccccc3)o2)cc1
melting point: 92 to 95 °C

Query block: Give me measured melting point, please, for this compound: COc1ccc(-c2cc3cc(F)c(F)cc3[nH]2)cc1NS(C)(=O)=O
Result block: 254 to 256 °C

====

Consider the following compounds and their measured melting point readings.

A selection of reference data follows.
Compound: CCOC(=O)c1cn(CC)c2nc(N3CCN(CC)CC3)ncc2c1=O
Result: 161 °C
--
Compound: CCN1CCN(c2cc3c(cc2F)c(=O)c(C(=O)O)c2n3C(C)S2)CC1 (stereo unspecified)
Result: 211 to 214 °C
--
Compound: O=C(NCCO)c1ccc(-c2ccc3nnn(Cc4ccc5ncccc5c4)c3n2)cc1
Result: > 260 °C
--
Compound: COc1ccc2ccc(NC(=O)c3c(F)cccc3F)nc2n1
Result: 219 to 220 °C
--
Compound: O=C(CCNc1c(C(=O)O)[nH]c2cc(Cl)ccc12)c1ccccc1
Result: 250 to 255 °C

Okay, next one:
Query block: Give me measured melting point, please, for this compound: C=CC(=O)Nc1ccc2ncnc(Nc3cccc(C)c3)c2c1
Result block: 247 to 248 °C

====

Consider the following molecules and their measured melting point readings.

A selection of reference data follows.
Molecule: CN1CCN(C2=Nc3ccc(Cl)cc3S(=O)(=O)N2)CC1
melting point: > 300 °C
//
Molecule: CN(C)C1(c2cccc(F)c2)CCC(=CC(=O)NCCCc2ccccc2)CC1 (stereo not given)
melting point: 129 to 131 °C
//
Molecule: Cc1cc(-c2ccc(S(C)(=O)=O)cc2)n(-c2ccc(F)cc2)c1C
melting point: 159 to 162 °C
//
Molecule: CC(=O)Nc1cccc2c1CCNC2=O
melting point: 244 to 246 °C

Okay, next one:
Query block: Give me measured melting point, please, for this molecule: Cn1ccnc1CCNS(=O)(=O)c1ccccc1[N+](=O)[O-]
Result block: 193 to 199 °C

====

Residues, ends and D or L forms follow the SMILES beside them. *: point of attachment. Boc = CC(C)(C)OC(=O)*; OBn = c1ccc(CO*)cc1; Bn = c1ccc(C*)cc1
Reported Endpoint: melting point

A selection of reference data follows.
Molecule: COC(=O)C1=C(C)NC(C)=C(C(=O)OC)C1c1ccccc1CO
Reported Endpoint: melting point
Result: 218 to 220 °C

Molecule: CC(C)CC(NC(=O)C(Cc1ccc(OCc2ccccc2)cc1)NC(=O)OC(C)(C)C)C(=O)OCc1ccccc1 (stereo not drawn) (Boc-Tyr(Bn)-Leu-OBn; configuration not given here)
Reported Endpoint: melting point
Result: 100 to 103 °C

Molecule: CN(CC1OCCO1)c1nccc(Oc2ccc(NC(=O)c3cc(F)cc(N4CCOCC4)c3)c3ccccc23)n1
Reported Endpoint: melting point
Result: 111 to 112 °C

Molecule: FC(F)(F)c1ccc(CN2CC=C(/C=C/c3ccccc3)CC2)cc1
Reported Endpoint: melting point
Result: 125 to 127 °C

Molecule: CC1CC2=CC(=O)CCC2C2CCC3(C)C(C=O)CCC3C12 (stereo not drawn)
Reported Endpoint: melting point
Result: 207 to 230 °C

Molecule: O=C(Cc1cc(C(=O)c2ccc(I)c([N+](=O)[O-])c2)sc1-c1ccccc1)NO
Reported Endpoint: melting point
Result: 147 to 151 °C

Molecule: O=C(O)c1cc(OCc2ccccc2)c(C(=O)c2ccc(Cl)cc2)c([N+](=O)[O-])c1
Reported Endpoint: melting point
Result: 137 to 138 °C

Molecule: CCCCC(N)S(=O)(=O)O (stereo not drawn)
Reported Endpoint: melting point
Result: 142 °C

Molecule: Cc1cc(OCC(F)(F)F)c(N)c(OCC(F)(F)F)n1
Reported Endpoint: melting point
Result: 53.5 to 53.8 °C

Molecule: COc1cc(OC)nc(Sc2cnn(C)c2NS(=O)(=O)CC#N)n1
Reported Endpoint: melting point
Result: 147 to 148 °C

Query block: Give me measured melting point, please, for this molecule: O=C(NC1CC1)c1cc2[nH]cnc2c(Cl)c1NC(=O)c1cc(C(F)(F)F)nn1-c1ncccc1Cl
Result block: 198 to 201 °C

Query block: Give me measured melting point, please, for this molecule: COc1cc(C2c3cc4c(cc3C(NC3=CC(=O)N(Cc5ccc(NC(C)=O)cc5)C3=O)C3COC(=O)C23)OCO4)cc(OC)c1O[Si](C)(C)C(C)(C)C (stereo not drawn)
Result block: 177 to 179 °C

Query block: Give me measured melting point, please, for this molecule: CN1CCN(c2c(F)c(F)c([N+](=O)[O-])c(F)c2F)CC1
Result block: 77 to 78 °C

====

Consider the following compounds and their measured melting point readings.

A selection of reference data follows.
Compound: O=S(=O)(NCC1CCN(C[C@H]2COc3ccc(Cl)cc3O2)CC1)c1c(F)cccc1F
Reported Endpoint: melting point
Result: 122 to 124 °C

Compound: O=C(NO)c1ccc(CNC(=O)c2[nH]c(-c3cccs3)cc2-c2ccc(O)cc2)cc1
Reported Endpoint: melting point
Result: 171 to 172 °C

Compound: O=C(CC(=O)C1CC1)c1ccc(S(F)(F)(F)(F)F)cc1
Reported Endpoint: melting point
Result: 70 to 72 °C

Compound: NC1=C(c2cccc(C(F)(F)F)c2)C(=O)C(c2ccccc2)C1 (stereo unspecified)
Reported Endpoint: melting point
Result: 205 to 206 °C

Compound: CCOC(=O)CC1CCc2cc3ccccc3n2C1 (stereo unspecified)
Reported Endpoint: melting point
Result: 66 to 68 °C

Query block: Give me measured melting point, please, for this compound: O=C1N(Cc2ccco2)c2ccccc2C12COc1cc3c(cc12)OCO3 (stereo unspecified)
Result block: 110 to 112 °C

Query block: Give me measured melting point, please, for this compound: CCCc1ccc(-c2ccc(-c3cccs3)c(F)c2)cc1
Result block: 88 °C

Query block: Give me measured melting point, please, for this compound: Cc1c(Br)c(=O)oc2nn(Cc3ccccc3Cl)c(C)c12
Result block: 206 to 208 °C

Query block: Give me measured melting point, please, for this compound: CC1=C(CCN(O)C(N)=O)/C(=C/c2ccc(S(C)(=O)=O)cc2)c2ccccc21
Result block: 140 to 142 °C

Query block: Give me measured melting point, please, for this compound: COc1ccc(N2C(=O)C3=C(SCCS3)C2O)cc1 (stereo unspecified)
Result block: 153 to 154 °C

Query block: Give me measured melting point, please, for this compound: CC(C)(C)OC(=O)NC[C@H](O)[C@@H](O)[C@H](O)[C@H](O)CO
Result block: 81 to 83 °C
